The values you see were collected from ChEMBL document CHEMBL1201862.

# Tested on: CCRF-CEM
# Experiment Summary: NCI tumour cell line growth inhibition, 48 h
The source made the active and inactive calls. Cut-off read from the data, not from the text of the source: active = GI50 up to about 1.1 µM and inactive = higher. Where a SMILES comes first, the peptide text is derived from it. [ ]: non-standard residue; d: D form. The star is where a group is joined. Cbz = O=C(OCc1ccccc1)*; Aib = CC(C)(N)C(=O)O
Select the matching outcome among class 1 for active, class 0 for inactive

Challenge: Hi team, can someone confirm the assay call for "CCOC(=O)C(=O)Nc1c(F)cc(F)cc1Br" ?
Response given: class 0

Challenge: Hi team, can someone confirm the assay call for "Cc1cc(Cc2c(F)c(F)c(Cc3cc(C)no3)c(F)c2F)on1" ?
Response given: class 0

Challenge: Hi team, can someone confirm the assay call for "CN(CCCN(C)CCc1ccc(Cl)c(Cl)c1)CCCN1CCCC1" ?
Response given: class 1

Challenge: Hi team, can someone confirm the assay call for "CC(=O)N1CCc2[nH]c3ccccc3c2CC1" ?
Response given: class 0

Challenge: Hi team, can someone confirm the assay call for "C=C1C(=O)O[C@H]2[C@H]3O[C@@H](C[C@@H]12)[C@](C)(O)CC[C@@H]1O[C@@]1(C)CCC[C@H]3C" ?
Response given: class 0

Challenge: Hi team, can someone confirm the assay call for CC(C)(NC(=O)C(C)(C)NC(=O)OCc1ccccc1)C(=O)O (Cbz-[Aib]-[Aib]-OH) ?
Response given: class 0

Challenge: Hi team, can someone confirm the assay call for CC(Cn1c2c3ccccc3ccc2c2oc(=O)c3ccccc3c21)N(C)C (stereo not drawn) ?
Response given: class 0

Challenge: Hi team, can someone confirm the assay call for "CNC(=O)N(CCC#N)[C@H]1CCCC[C@@H]1N(C(=O)NC)c1ccccc1" ?
Response given: class 0

Challenge: Hi team, can someone confirm the assay call for "CS/C(=N/S(=O)(=O)c1ccc(Cl)cc1)NCCCN/C(=N\S(=O)(=O)c1ccc(Cl)cc1)SC" ?
Response given: class 0

Challenge: Hi team, can someone confirm the assay call for COc1ccccc1NC(=O)C(CC(C(=O)Nc1ccccc1OC)/C(C)=N/NC(=O)c1ccccc1O)/C(C)=N/NC(=O)c1ccccc1O (stereo not drawn) ?
Response given: class 0

Challenge: Hi team, can someone confirm the assay call for "CC(=O)OCc1c(O)nc2c(c1O)-c1ccccc1CC2" ?
Response given: class 0

Challenge: Hi team, can someone confirm the assay call for "CSc1ccc2c(cc1=O)[C@@H](NC(=O)c1ccc(F)cc1)CCc1cc(O)c(O)c(O)c1-2" ?
Response given: class 0

Challenge: Hi team, can someone confirm the assay call for "CC(=O)OC(OC(C)=O)n1cc(C=O)c2ccccc21" ?
Response given: class 0

Challenge: Hi team, can someone confirm the assay call for "O=C(O)C#CCO" ?
Response given: class 0

Challenge: Hi team, can someone confirm the assay call for "COc1cc(/C=C2\CCc3ccccc3C2=O)cc(OC)c1OC" ?
Response given: class 0

Challenge: Hi team, can someone confirm the assay call for NCCSCC(N)C(=O)O (stereo not drawn) ?
Response given: class 0

Challenge: Hi team, can someone confirm the assay call for "O=C(CSCC(=O)N/N=C\c1cc(Cl)cc(Cl)c1O)N/N=C\c1cc(Cl)cc(Cl)c1O" ?
Response given: class 1

Challenge: Hi team, can someone confirm the assay call for "CC1=C(C(=O)NCCCN(CCO)CCO)CC(C(=O)NCCCN(CCO)CCO)=C(C)N1" ?
Response given: class 0

====

# Test system: A498
# Experiment Summary: NCI tumour cell line growth inhibition, 48 h
Calls of active or inactive are those of the source. Cut-off read from the data, not from the text of the source: active = GI50 up to about 1.1 µM and inactive = higher.
Readout Type: GI50

Item: CN1CCc2ccccc2C(C(=O)c2ccc3c(c2)OCO3)C1=O (configuration not stated) | GI50: > 100 µM (inactive)

Item: COC(=O)C1CCC(=O)N1C(c1cc(OC)c(OC)c(OC)c1)c1cccc2ccccc12 (configuration not stated) | GI50: > 100 µM (inactive)

Item: "Cc1ccc(-c2c(C#N)c(-c3ccccc3)n(NS(=O)(=O)c3ccccc3)c(=O)c2C#N)cc1" | GI50: > 100 µM (inactive)

Item: "CCOC(=O)c1c[nH]c(C(=O)OCC)c1-c1cccn1-c1ccccc1" | GI50: 27 µM (inactive)

Item: "CN(C)/C=N/Cc1ccc2c(c1)OCO2" | GI50: > 100 µM (inactive)

Item: "C/C(CC(=O)Nc1cc(C)ccc1C)=N/N=C(N)N" | GI50: > 100 µM (inactive)

Item: "CC(C)(C)n1c(=O)[nH]c(=O)n1C(C)(C)C" | GI50: > 100 µM (inactive)

Item: "N#Cc1c(=O)c2cccnc2n2c1[nH]c1ccccc12" | GI50: 77.3 µM (inactive)

Item: BC(=O)NC(CC(C)C)C(=O)NCC(=O)NC1c2ccsc2C(=O)C1O.CN(C)C (configuration not stated) | GI50: > 100 µM (inactive)

Item: "Cc1c(CC/C(=N\Nc2ccc([N+](=O)[O-])cc2[N+](=O)[O-])c2ccccc2)c2ccccc2n1C" | GI50: > 100 µM (inactive)

Item: "COC(=O)c1scc(N)c1-n1ccc(=O)[nH]c1=O" | GI50: > 100 µM (inactive)

Item: "COC[C@@H](/N=C/C(C)(C)C)C(C)C" | GI50: > 100 µM (inactive)

====

# System: SK-MEL-2
# Experiment Summary: NCI tumour cell line growth inhibition, 48 h
Calls of active or inactive are those of the source. Cut-off read from the data, not from the text of the source: active = GI50 up to about 1.1 µM and inactive = higher. Non-standard residues stand in square brackets, D forms with d. Residues, ends and D or L forms follow the SMILES beside them. Ava = NCCCCC(=O)O; Mpa = O=C(O)CCS
Readout Type: GI50

Item: "CN(C)CN1CSC(=S)N(CN(C)C)C1" | GI50: 33.3 µM (inactive)

Item: "C[C@]12CC[C@H]3[C@@H](CCC4=CC(=O)CC[C@@]43C)[C@@H]1CC[C@@H]2C(=O)COS(=O)(=O)c1ccc(Br)cc1" | GI50: 8.38 µM (inactive)

Item: COc1ccccc1NC(=O)C(CC(C(=O)Nc1ccccc1OC)/C(C)=N/NC(=O)c1ccccc1O)/C(C)=N/NC(=O)c1ccccc1O (stereo unspecified) | GI50: > 100 µM (inactive)

Item: "CC(=O)O[C@H]1CC[C@@]2(C)C(=CC[C@@H]3[C@@H]2CC[C@]2(C)c4nc(N)c(C#N)cc4C[C@@H]32)C1" | GI50: 35.9 µM (inactive)

Item: CC(NC(=O)CCS)C(=O)NC(C)C(=O)NC(Cc1c[nH]c2ccccc12)C(=O)NC(Cc1c[nH]cn1)C(=O)NC(CO)C(=O)NC(Cc1c[nH]c2ccccc12)C(=O)NCCCCC(=O)NC(C)C(=O)NC(CCC(N)=O)C(=O)NC(CCCCN)C(=O)NC(C)C(=O)NC(CCCNC(=N)N)C(=O)NC(CCCCN)C(N)=O (stereo unspecified) ([Mpa]AAWHSW[Ava]AQKARK-NH2; configuration not given here) | GI50: > 100 µM (inactive)

Item: "c1cncc(CC2(c3cc4ccccc4[nH]3)OCCO2)c1" | GI50: > 100 µM (inactive)

Item: "CCOC(=O)c1c(N2CCCC2)[nH]c(=O)c(C(c2ccc(OC)cc2)c2c(O)c(C(=O)OCC)c(N3CCCC3)[nH]c2=O)c1O" | GI50: 5 µM (inactive)

Item: "Cn1c(=O)sc2cc(C(=S)N3CCCCC3)ccc21" | GI50: > 100 µM (inactive)

Item: "CN(C)CCCN1N=Nc2cccc3cccc1c23" | GI50: > 100 µM (inactive)

Item: "CSc1ccc2c(cc1=O)[C@@H](NC(=O)c1ccc(F)cc1)CCc1cc(O)c(O)c(O)c1-2" | GI50: > 100 µM (inactive)

Item: "COc1c2c(c(CC=C(C)C)c3oc(=O)c(-c4ccc(O)cc4)c(O)c13)OC(C)(C)C=C2" | GI50: 19.6 µM (inactive)

====

# Test system: M14
# Experiment Summary: NCI tumour cell line growth inhibition, 48 h
Active and inactive are the calls of the source. Rule as the data show it: active = GI50 up to about 1.1 µM and inactive = higher.
Select the matching outcome among yes = active, no = inactive

Challenge: Hi team, can someone confirm the assay call for "Nc1nc(-c2ccccc2)cc(-c2ccc(OCc3ccccc3)cc2O)n1" ?
Response given: no

Challenge: Hi team, can someone confirm the assay call for "Cc1ccc2[nH]c3c(c(=O)n(C)c(=O)n3C)c2c1" ?
Response given: no

Challenge: Hi team, can someone confirm the assay call for O=C(O)C12CCCCC1CCCC2 (stereo not drawn) ?
Response given: no

Challenge: Hi team, can someone confirm the assay call for CCCCCCCCCCCCCCCCOC[C@@H](COC(c1ccccc1)(c1ccccc1)c1ccccc1)O[PH](=S)OC (stereo partly drawn) ?
Response given: no

Challenge: Hi team, can someone confirm the assay call for "O=C1C(O)=C(C(C2=C(O)C(=O)c3ccccc3C2=O)c2ccc(Cl)cc2)C(=O)c2ccccc21" ?
Response given: no

Challenge: Hi team, can someone confirm the assay call for "O=c1c2cc3c(cc2c2cccc4c2n1CCC4)OCO3" ?
Response given: no

Challenge: Hi team, can someone confirm the assay call for "C[N+](C)(CCNc1ccc(NCC[N+](C)(C)Cc2ccc([N+](=O)[O-])cc2)c2c1C(=O)c1c(O)ccc(O)c1C2=O)Cc1ccc([N+](=O)[O-])cc1" ?
Response given: no

Challenge: Hi team, can someone confirm the assay call for "CN(C)CCCn1c(-c2cc(C(C)(C)C)c(O)c(C(C)(C)C)c2)cs/c1=N\c1ccccc1" ?
Response given: no

Challenge: Hi team, can someone confirm the assay call for "O=C1C(Br)=CC2(C=C1Br)CCNC1=C2C(=O)c2ccccc2C1=O" ?
Response given: no

Challenge: Hi team, can someone confirm the assay call for "CC(=O)O[C@H]1CC[C@@]2(C)C(=CC[C@@H]3[C@@H]2CC[C@]2(C)c4nc(N)c(C#N)cc4C[C@@H]32)C1" ?
Response given: no

Challenge: Hi team, can someone confirm the assay call for COc1cc2cc(C(=O)N3CC(CCl)c4c3cc(NC(=O)C(C)Nc3c([N+](=O)[O-])cc(C(=O)NCCN(C)C)cc3[N+](=O)[O-])c3ccccc43)[nH]c2c(OC)c1OC (stereo not drawn) ?
Response given: yes

Challenge: Hi team, can someone confirm the assay call for "C=CCNC(=O)/C(Cc1cc(Br)c(OC)c(Br)c1O)=N\O" ?
Response given: no

Challenge: Hi team, can someone confirm the assay call for "N#C/N=N/c1cc(Cl)c(/N=N/C#N)cc1Cl" ?
Response given: no

Challenge: Hi team, can someone confirm the assay call for "Cc1ccc2c(c1)[nH]c(=S)n2C=C(C(N)=O)C(N)=O" ?
Response given: no

Challenge: Hi team, can someone confirm the assay call for CC(=O)OCC1OC(OC2CC3C(C)(C)C(OC(C)=O)CC[C@]3(C)C3CCC45CC4(CC[C@H]5C(C)CC(O)C4OC4(C)C)[C@]23C)C(O)C(O)C1O (stereo partly drawn) ?
Response given: no

Challenge: Hi team, can someone confirm the assay call for "Nc1ccc(Cc2ccc(/N=C\c3ccc(OCc4cccc(COc5ccc(/C=N\c6ccc(Cc7ccc(N)cc7)cc6)cc5)n4)cc3)cc2)cc1" ?
Response given: no

Challenge: Hi team, can someone confirm the assay call for "O=P1(O)c2ccccc2CSCc2ccccc21" ?
Response given: no

Challenge: Hi team, can someone confirm the assay call for "Cc1cc(C)n(C(=C(C(Cl)=C(Cl)Cl)[N+](=O)[O-])n2nc(C)cc2C)n1" ?
Response given: no
